Target Under Test: T1, human neuropeptide Y2 receptor (human, UniProt P49146 1-381)
T1 sequence (looked up): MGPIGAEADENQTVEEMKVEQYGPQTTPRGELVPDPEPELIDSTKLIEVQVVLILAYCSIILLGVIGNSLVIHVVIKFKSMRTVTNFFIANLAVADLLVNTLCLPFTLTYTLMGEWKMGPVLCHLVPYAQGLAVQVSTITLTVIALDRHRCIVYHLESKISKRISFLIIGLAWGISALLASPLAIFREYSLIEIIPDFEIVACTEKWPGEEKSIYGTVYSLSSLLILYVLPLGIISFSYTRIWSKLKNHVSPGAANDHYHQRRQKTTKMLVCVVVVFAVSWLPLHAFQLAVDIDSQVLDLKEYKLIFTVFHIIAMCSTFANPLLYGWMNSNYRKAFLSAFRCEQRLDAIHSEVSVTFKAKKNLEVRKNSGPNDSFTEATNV
Assay Comment: cell-based or functional assay
*1 amine or outer side, *2 acyl side, *3 side chain or, on linkers, in order; H or OH if unused. Where no end group is shown, it is not given here. Side-chain parts run from the residue outwards. [ ]: non-standard residue; d: D form. The star is where a group is joined. C18 diacid = O=C(O)CCCCCCCCCCCCCCCCC(=O)*; γGlu = O=C(O)[C@H](CCC(=O)[*:2])N[*:1]; εLys = N[C@@H](CCCCN[*:1])C(=O)[*:2]; Aib = CC(C)(N)C(=O)O
The entries below come with measured EC50, CreLuc reporter, 0.5% hP values attached.

{"Binder": "Y[Aib]EGTFTSDYSI[Aib]LEKQAQ[Aib]EFVRHLINK([γGlu-γGlu-γGlu-γGlu-C18 diacid])[Aib]TRQRY-NH2 [Compound 79]", "EC50, CreLuc reporter, 0.5% hP (nM)": 57.9}
{"Binder": "YXEGTFTSDYSIXLDKQAQXAFVRHLINKXTRQRY (Aib at 2, 13, 20, 30; Lys29 epsilon-amino acylated with C20DA-gGlu-gGlu-gGlu-gGlu-gGlu-gGlu-eLys; C-terminal amide) [Compound 74]", "EC50, CreLuc reporter, 0.5% hP (nM)": 7.1}
{"Binder": "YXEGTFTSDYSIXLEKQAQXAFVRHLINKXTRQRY (Aib at 2, 13, 20, 30; NMeQ at 33; Lys29 epsilon-amino acylated with C18DA-gGlu-gGlu-gGlu-gGlu-gGlu-gGlu-eLys; C-terminal amide) [Compound 17]", "EC50, CreLuc reporter, 0.5% hP (nM)": 29.4}
{"Binder": "YXEGTFTSDYSIXLEKQAQXEFVRHLINKXTRQRY (Aib at 2, 13, 20, 30; Lys29 epsilon-amino acylated with C18DA-gGlu-gGlu-gGlu-gGlu-gGlu-AHX; C-terminal amide) [Compound 14]", "EC50, CreLuc reporter, 0.5% hP (nM)": 16.8}
{"Binder": "YXEGTFTSDYSIXLEKQAQXAFVRHLINKITRQRY (Aib at 2, 13, 20; Lys29 epsilon-amino acylated with C18DA-gGlu-gGlu-gGlu-gGlu-gGlu-gGlu-eLys; C-terminal amide) [Compound 66]", "EC50, CreLuc reporter, 0.5% hP (nM)": 9.8}
{"Binder": "Y[Aib]EGTFTSDYSI[Aib]LEKQAQ[Aib]AFVRHLINK([γGlu-γGlu-εLys-γGlu-γGlu-γGlu-γGlu-C18 diacid])[Aib]TRQRY-NH2 [Compound 34]", "EC50, CreLuc reporter, 0.5% hP (nM)": 14.6}
